target: UniProt P11712; test: Inhibition of CYP2C9-catalyzed diclofenac 4-hydroxylation in pooled human liver microsomes; type: in vitro ADME; parameters: incubation mixtures containing pooled human liver microsomes (HLMs, XTreme 200, XenoTech); tissue XenoTech XTreme 200; host or cells: pooled human liver microsomes; settings: substrate diclofenac 10 µM; pooled HLMs; read-out: IC50, P450 2C9
Sequence (P11712 whole entry): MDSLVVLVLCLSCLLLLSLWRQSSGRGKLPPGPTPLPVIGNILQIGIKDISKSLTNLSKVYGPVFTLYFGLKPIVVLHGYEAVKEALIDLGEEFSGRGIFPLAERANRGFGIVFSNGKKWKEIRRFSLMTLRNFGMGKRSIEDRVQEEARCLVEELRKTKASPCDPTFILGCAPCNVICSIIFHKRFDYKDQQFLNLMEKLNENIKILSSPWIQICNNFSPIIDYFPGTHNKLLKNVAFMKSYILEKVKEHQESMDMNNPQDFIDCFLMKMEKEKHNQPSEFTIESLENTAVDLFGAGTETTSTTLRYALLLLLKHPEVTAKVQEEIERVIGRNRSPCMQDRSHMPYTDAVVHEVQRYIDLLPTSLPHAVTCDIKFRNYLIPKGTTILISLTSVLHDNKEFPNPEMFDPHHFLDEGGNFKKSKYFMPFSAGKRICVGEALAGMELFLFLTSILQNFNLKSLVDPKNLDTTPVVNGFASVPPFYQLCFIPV
One threshold, 200 nM, splits the recorded IC50 values: lower ones are true, equal or higher ones are false.

Molecule	Classification
O=c1cc(-c2ccc(O)c(-c3c(O)cc4oc(-c5ccc(O)cc5)cc(=O)c4c3O)c2)oc2cc(O)cc(O)c12	true

Req: Is 200 nM strictly greater than the molecule's reported IC50? molecule: O=C1CC(c2cc(-c3c(O)ccc4c(=O)cc(-c5ccc(O)cc5)oc34)c(O)cc2O)Oc2cc(O)cc(O)c21 (centres unmarked)
Resp: true

Req: hey, is IC50 for `O=c1cc(-c2ccc(O)cc2)oc2c(-c3c(O)cc(O)c4c(=O)cc(-c5ccc(O)cc5)oc34)c(O)cc(O)c12` lower than 200 nM or not?
Resp: false

Req: Please let me know if CC(C)(O)c1ccccc1CC[C@@H](SCC1(CC(=O)O)CC1)c1cccc(/C=C/c2ccc3ccc(Cl)cc3n2)c1 [montelukast, reference compound] shows IC50 below 200 nM.
Resp: false

====

biological target: CYP2C8 (Homo sapiens); test: Inhibition of CYP2C8-catalyzed rosiglitazone 5-hydroxylation in human liver microsomes; assay type: in vitro ADME; design: incubation mixtures containing pooled human liver microsomes (HLMs, XTreme 200, XenoTech); tissue XenoTech XTreme 200; host or cells: pooled human liver microsomes; conditions: HLMs; average ± standard error, triplicate
Sequence (P10632 whole entry): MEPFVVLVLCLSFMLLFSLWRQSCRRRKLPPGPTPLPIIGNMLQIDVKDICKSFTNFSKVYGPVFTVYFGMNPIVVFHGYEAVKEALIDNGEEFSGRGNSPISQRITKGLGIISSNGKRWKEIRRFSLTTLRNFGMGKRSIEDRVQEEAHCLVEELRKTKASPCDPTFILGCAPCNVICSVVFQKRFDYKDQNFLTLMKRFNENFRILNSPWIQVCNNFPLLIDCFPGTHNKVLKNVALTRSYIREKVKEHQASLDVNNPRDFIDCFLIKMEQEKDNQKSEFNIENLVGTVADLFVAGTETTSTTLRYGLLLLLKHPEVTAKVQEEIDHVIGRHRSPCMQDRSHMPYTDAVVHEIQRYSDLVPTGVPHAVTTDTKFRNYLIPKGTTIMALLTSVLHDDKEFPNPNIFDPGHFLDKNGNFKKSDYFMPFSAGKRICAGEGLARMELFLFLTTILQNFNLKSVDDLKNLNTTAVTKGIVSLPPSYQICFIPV
Recorded metric: Ki (nM)
Answers are plain numbers, in nM.

Req: Give the reported value of Ki for this record: O=C1CC(c2cc(-c3c(O)ccc4c(=O)cc(-c5ccc(O)cc5)oc34)c(O)cc2O)Oc2cc(O)cc(O)c21 (stereo not shown) [selamariscina A]
Resp: 10

====

target: CYP1A2 (Homo sapiens, UniProt P05177); construct: incubation mixtures containing pooled human liver microsomes (HLMs, XTreme 200, XenoTech); tissue XenoTech XTreme 200; host or cells: pooled human liver microsomes; assay: Inhibition of CYP1A2-catalyzed phenacetin O-deethylation in pooled human liver microsomes; assay type: in vitro ADME; details: substrate phenacetin 100 µM; pooled HLMs; read-out: IC50, P450 1A2
Sequence (P05177 whole entry): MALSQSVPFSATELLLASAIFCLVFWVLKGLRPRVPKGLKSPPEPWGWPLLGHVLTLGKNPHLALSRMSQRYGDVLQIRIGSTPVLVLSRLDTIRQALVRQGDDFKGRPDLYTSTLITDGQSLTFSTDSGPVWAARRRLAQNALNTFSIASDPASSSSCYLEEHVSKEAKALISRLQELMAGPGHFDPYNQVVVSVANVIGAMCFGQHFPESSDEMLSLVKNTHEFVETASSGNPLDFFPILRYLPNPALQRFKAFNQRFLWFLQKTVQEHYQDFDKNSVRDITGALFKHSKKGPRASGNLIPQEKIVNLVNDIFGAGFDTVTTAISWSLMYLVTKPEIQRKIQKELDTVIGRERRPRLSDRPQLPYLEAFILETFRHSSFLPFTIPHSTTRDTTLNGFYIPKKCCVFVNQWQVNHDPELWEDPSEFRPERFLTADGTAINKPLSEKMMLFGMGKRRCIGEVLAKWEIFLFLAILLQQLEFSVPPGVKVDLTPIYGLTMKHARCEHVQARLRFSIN
Recorded metric: IC50 (µM)
Numbers only, in µM.

Each of the following entries comes with a recorded value; kindly state IC50 for each.
1. O=c1cc(-c2ccc(O)c(-c3c(-c4ccc(O)cc4)oc4cc(O)cc(O)c4c3=O)c2)oc2cc(O)cc(O)c12
2. O=c1cc(-c2ccc(O)cc2)oc2c(-c3c(O)cc(O)c4c(=O)cc(-c5ccc(O)cc5)oc34)c(O)cc(O)c12
3. O=C1CC(c2cc(-c3c(O)ccc4c(=O)cc(-c5ccc(O)cc5)oc34)c(O)cc2O)Oc2cc(O)cc(O)c21 (centres unmarked)
4. O=c1cc(-c2ccc(O)c(-c3c(O)cc4oc(-c5ccc(O)cc5)cc(=O)c4c3O)c2)oc2cc(O)cc(O)c12

Resp:
6.8
5.9
7.4
4.5

====

Biological target: CYP2B6 (Homo sapiens, UniProt P20813)
Construct: incubation mixtures containing pooled human liver microsomes (HLMs, XTreme 200, XenoTech); tissue XenoTech XTreme 200; host or cells: pooled human liver microsomes
Sequence (P20813 1-491): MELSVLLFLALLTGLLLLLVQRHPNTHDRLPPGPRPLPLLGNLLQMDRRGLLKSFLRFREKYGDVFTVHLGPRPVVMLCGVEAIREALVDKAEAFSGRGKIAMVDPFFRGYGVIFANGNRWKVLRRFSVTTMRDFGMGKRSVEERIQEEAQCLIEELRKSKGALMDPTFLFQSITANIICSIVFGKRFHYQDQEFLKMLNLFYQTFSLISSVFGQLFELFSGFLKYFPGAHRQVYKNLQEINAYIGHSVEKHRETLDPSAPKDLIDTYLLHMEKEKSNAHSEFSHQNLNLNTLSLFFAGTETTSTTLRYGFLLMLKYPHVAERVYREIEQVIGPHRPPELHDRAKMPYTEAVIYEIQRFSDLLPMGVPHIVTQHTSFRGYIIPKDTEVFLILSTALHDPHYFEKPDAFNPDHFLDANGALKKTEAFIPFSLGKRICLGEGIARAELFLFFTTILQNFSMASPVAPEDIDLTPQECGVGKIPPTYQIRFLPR
Experiment: Inhibition of CYP2B6-catalyzed bupropion hydroxylation in pooled human liver microsomes
Format: in vitro ADME
Settings: human, pooled human liver microsomes, probe bupropion; inhibitor 5 μM; pooled HLMs
Recorded metric: inhibition at 10 min, 5 µM (%)
One number for each entry, in %.

Req: Item CC(C)(O)c1ccccc1CC[C@@H](SCC1(CC(=O)O)CC1)c1cccc(/C=C/c2ccc3ccc(Cl)cc3n2)c1 [montelukast, reference compound] : provide inhibition at 10 min, 5 µM
Resp: 20.4

All figures here come from paper PMC7238120.
